Data provenance: ChEMBL document CHEMBL1130283

Test system: HT-29
assayDetails: Inhibition of the growth against human Colon Carcinoma (HT-29) cell line after 72 hr exposure
Format: functional, cell-based
appliedConditions: HT-29, 72 h
pIC50: −log10 of the molar value.
assayEndpoint: pIC50

Answered cases to consult:
INSERT INTO assay_data (compound, obsvalue) VALUES
  ('CC(=O)OC1C(=O)C2(C)C(O)CC3OCC3(OC(C)=O)C2C(OC(=O)C=C(C)C)C2(O)CC(OC(=O)C(O)C(CC(C)C)NC(=O)OC(C)(C)C)C(C)=C1C2(C)C (stereo not given)', 7.05),
  ('CC(=O)OC1C(=O)C2(C)C(O)CC3OCC3(OC(C)=O)C2C(OC(=O)C2CCCCC2)C2(O)CC(OC(=O)C(O)C(C=C(C)C)NC(=O)OC(C)(C)C)C(C)=C1C2(C)C (stereo not given)', 8.77),
  ('CC(=O)OC1C(=O)C2(C)C(O)CC3OCC3(OC(C)=O)C2C(OC(=O)CC(C)C)C2(O)CC(OC(=O)C(O)C(CC(C)C)NC(=O)OC(C)(C)C)C(C)=C1C2(C)C (stereo not given)', 7.28);

(1) CC(=O)O[C@H]1C(=O)[C@@]2(C)[C@H]([C@H](OC(=O)c3ccccc3)[C@]3(O)C[C@H](OC(=O)[C@H](O)[C@H](C=C(C)C)NC(=O)OC(C)(C)C)C(C)=C1C3(C)C)[C@]1(OC(C)=O)CO[C@@H]1C[C@@H]2O
(2) CC(=O)OC1C(=O)C2(C)C(O)CC3OCC3(OC(C)=O)C2C(OC(=O)C=C(C)C)C2(O)CC(OC(=O)C(O)C(NC(=O)OC(C)(C)C)c3ccccc3)C(C)=C1C2(C)C (stereo not given)
Enquiry: Pick one: 1 or 2 . Which has the bigger pIC50 number? Your choice should be expressed through its label.
Return: 1

* * *

Test system: HT-29
assayDetails: Inhibition of the growth against human Colon Carcinoma (HT-29) cell line after 72 hr exposure
Type: functional, cell-based
appliedConditions: HT-29, 72 h
assayEndpoint: IC50 (nM)

INSERT INTO assay_data (compound, experimentaltarget, assayendpoint, obsvalue) VALUES
  ('CC(=O)OC1C(=O)C2(C)C(O)CC3OCC3(OC(C)=O)C2C(OC(=O)C=C(C)C)C2(O)CC(OC(=O)C(O)C(C=C(C)C)NC(=O)OC(C)(C)C)C(C)=C1C2(C)C (stereo not drawn)', 'HT-29', 'IC50', 1.4);

(I) CC(=O)OC1C(=O)C2(C)C(O)CC3OCC3(OC(C)=O)C2C(OC(=O)C2CCCCC2)C2(O)CC(OC(=O)C(O)C(NC(=O)OC(C)(C)C)c3ccccc3)C(C)=C1C2(C)C (stereo not drawn)
(II) CC(=O)OC1C(=O)C2(C)C(O)CC3OCC3(OC(C)=O)C2C(OC(=O)CC(C)C)C2(O)CC(OC(=O)C(O)C(C=C(C)C)NC(=O)OC(C)(C)C)C(C)=C1C2(C)C (stereo not drawn)
Enquiry: Lowest IC50? choose I or II Your choice should be expressed through its label.
Return: I

* * *

Tested on: A549
assayDetails: Inhibition of the growth against human non-small-lung carcinoma (A549) cell line after 72 hr exposure
Type: functional, cell-based
appliedConditions: A549, 72 h
pIC50: −log10 of the molar value.
assayEndpoint: pIC50

INSERT INTO results (molecule, experimentaltarget, assayendpoint, obsvalue) VALUES
  ('CC(=O)OC1C(=O)C2(C)C(O)CC3OCC3(OC(C)=O)C2C(OC(=O)C2CCCCC2)C2(O)CC(OC(=O)C(O)C(C=C(C)C)NC(=O)OC(C)(C)C)C(C)=C1C2(C)C (stereo not given)', 'A549', 'pIC50', 8.89),
  ('CC(=O)OC1C(=O)C2(C)C(O)CC3OCC3(OC(C)=O)C2C(OC(=O)C2CCCCC2)C2(O)CC(OC(=O)C(O)C(NC(=O)OC(C)(C)C)C3CCCCC3)C(C)=C1C2(C)C (stereo not given)', 'A549', 'pIC50', 7.31);

(I) CC(=O)OC1C(=O)C2(C)C(O)CC3OCC3(OC(C)=O)C2C(OC(=O)CC(C)C)C2(O)CC(OC(=O)C(O)C(CC(C)C)NC(=O)OC(C)(C)C)C(C)=C1C2(C)C (stereo not given)
(II) CC(=O)OC1C(=O)C2(C)C(O)CC3OCC3(OC(C)=O)C2C(OC(=O)C2CCCCC2)C2(O)CC(OC(=O)C(O)C(NC(=O)OC(C)(C)C)c3ccccc3)C(C)=C1C2(C)C (stereo not given)
(III) CC(=O)OC1C(=O)C2(C)C(O)CC3OCC3(OC(C)=O)C2C(OC(=O)C=C(C)C)C2(O)CC(OC(=O)C(O)C(NC(=O)OC(C)(C)C)c3ccccc3)C(C)=C1C2(C)C (stereo not given)
Enquiry: Hey, quick one: sort these by pIC50, low to high? Answer by listing the labels in the order asked for.
Return: I, II, III

* * *

Test system: A549
assayDetails: Inhibition of the growth against human non-small-lung carcinoma (A549) cell line after 72 hr exposure
Assay type: functional, cell-based
appliedConditions: A549, 72 h
assayEndpoint: IC50 (nM)

INSERT INTO results (compound, uom, obsvalue) VALUES
  ('C/C=C/C(NC(=O)OC(C)(C)C)C(O)C(=O)OC1CC2(O)C(OC(=O)C3CCCCC3)C3C4(OC(C)=O)COC4CC(O)C3(C)C(=O)C(OC(C)=O)C(=C1C)C2(C)C (stereo unspecified)', 'nM', 12),
  ('CC(=O)O[C@H]1C(=O)[C@@]2(C)[C@H]([C@H](OC(=O)c3ccccc3)[C@]3(O)C[C@H](OC(=O)[C@H](O)[C@H](C=C(C)C)NC(=O)OC(C)(C)C)C(C)=C1C3(C)C)[C@]1(OC(C)=O)CO[C@@H]1C[C@@H]2O', 'nM', 0.3);

(P) CC(=O)OC1C(=O)C2(C)C(O)CC3OCC3(OC(C)=O)C2C(OC(=O)C=C(C)C)C2(O)CC(OC(=O)C(O)C(CC(C)C)NC(=O)OC(C)(C)C)C(C)=C1C2(C)C (stereo unspecified)
(Q) CC(=O)OC1C(=O)C2(C)C(O)CC3OCC3(OC(C)=O)C2C(OC(=O)CC(C)C)C2(O)CC(OC(=O)C(O)C(C=C(C)C)NC(=O)OC(C)(C)C)C(C)=C1C2(C)C (stereo unspecified)
(R) CC(=O)OC1C(=O)C2(C)C(O)CC3OCC3(OC(C)=O)C2C(OC(=O)C=C(C)C)C2(O)CC(OC(=O)C(O)C(C=C(C)C)NC(=O)OC(C)(C)C)C(C)=C1C2(C)C (stereo unspecified)
(S) CC(=O)OC1C(=O)C2(C)C(O)CC3OCC3(OC(C)=O)C2C(OC(=O)C2CCCCC2)C2(O)CC(OC(=O)C(O)C(CC(C)C)NC(=O)OC(C)(C)C)C(C)=C1C2(C)C (stereo unspecified)
Enquiry: Hey, quick one: sort these by IC50, low to high? Answer by listing the labels in the order asked for.
Return: R, S, Q, P
(R: 0.9 nM, S: 7.7 nM, Q: 14 nM, P: 30 nM)
